Can you tell me selectivity ratio for the items I'm about to list?
experimentalDetails: Selectivity ratio of CC50 for cytotoxicity against human Caco-2 cells to MIC for antifungal activity against Cryptococcus gattii NR 43213
Format: toxicity, cell-based
Give bare numbers.

>>> quantitativeresult("Cc1nc(-c2ccc3ccccc3c2)sc1-c1nnc(N[C@@H]2CCCC[C@H]2N)o1 (relative stereo)")
64

# next molecule below
The measured selectivity ratio associated with Cc1nc(-c2ccc3ccccc3c2)sc1-c1nnc(N[C@@H]2CCCC[C@@H]2N)o1 (relative stereo) reads 64

###

experimentalDetails: Cytotoxicity against African green monkey Vero cells assessed as cell viability at 8 ug/ml incubated for 2 hrs by MTS assay
Assay type: toxicity, cell-based
statedConditions: chlorocebus sabaeus, at 8 µg/mL, read-out: Activity
readout: viability at 2 h, 8 ug/ml (%)
One number for each entry, in %.

The measured viability at 2 h, 8 ug/ml associated with C[C@@H]1[C@H](O)[C@@H](C)/C=C/C=C/C=C/C=C/C=C/C=C/C=C/[C@H](O[C@@H]2O[C@H](C)[C@@H](O)[C@H](N)[C@@H]2O)C[C@@H]2O[C@](O)(C[C@@H](O)C[C@@H](O)[C@H](O)CC[C@@H](O)C[C@@H](O)CC(=O)O[C@H]1C)C[C@H](O)[C@H]2C(=O)O [AMPHOTERICIN B] reads 58

###

experimentalDetails: Apparent permeability of the compound measured after 4 hrs by PAMPA assay
Assay type: ADME
readout: Papp at 4 h
Record the result as number plus unit.

Record excerpt, results attached:
>>> result("Cc1nc(-c2ccc3ccccc3c2)sc1-c1nnc(N[C@@H]2CCCC[C@@H]2N)o1 (relative stereo)")
"26.3 ×10⁻⁶ cm/s"
>>> result("CC(C)NCC(O)COc1cccc2ccccc12 (centres undefined) [PROPRANOLOL]")
"76.6 ×10⁻⁶ cm/s"
>>> result("Cc1nc(-c2ccc3ccccc3c2)sc1-c1nnc(N[C@@H]2CCCC[C@H]2N)o1 (relative stereo)")
"57.7 ×10⁻⁶ cm/s"

# next molecule below
The measured Papp at 4 h associated with CC(C(=O)O)c1cccc(C(=O)c2ccccc2)c1 (centres undefined) [KETOPROFEN] reads 10.2 ×10⁻⁶ cm/s

###

experimentalDetails: Selectivity ratio of CC50 for cytotoxicity against human Caco-2 cells to MIC for antifungal activity against Cryptococcus gattii NR 43210
Type: toxicity, cell-based
Can you tell me selectivity ratio for the items I'm about to list?

>>> result("Cc1nc(-c2ccc3ccccc3c2)sc1-c1nnc(N[C@@H]2CCCC[C@@H]2N)o1 (relative stereo)")
64

The measured selectivity ratio associated with Cc1nc(-c2ccc3ccccc3c2)sc1-c1nnc(N[C@@H]2CCCC[C@H]2N)o1 (relative stereo) reads 64

###

System: Cryptococcus neoformans
experimentalDetails: Antifungal activity against Cryptococcus neoformans NR 48771 assessed as inhibition of fungal growth incubated for 48 hrs by broth microdilution method
Type: functional
readout: MIC (µg/mL)
One number for each entry, in µg/mL.

Record excerpt, results attached:
>>> quantitativeresult("Cc1nc(-c2ccc3ccccc3c2)sc1-c1nnc(N[C@@H]2CCCC[C@H]2N)o1 (relative stereo)")
1
>>> quantitativeresult("C[C@@H]1[C@H](O)[C@@H](C)/C=C/C=C/C=C/C=C/C=C/C=C/C=C/[C@H](O[C@@H]2O[C@H](C)[C@@H](O)[C@H](N)[C@@H]2O)C[C@@H]2O[C@](O)(C[C@@H](O)C[C@@H](O)[C@H](O)CC[C@@H](O)C[C@@H](O)CC(=O)O[C@H]1C)C[C@H](O)[C@H]2C(=O)O [AMPHOTERICIN B]")
1
>>> quantitativeresult("Cc1nc(-c2ccc3ccccc3c2)sc1-c1nnc(N[C@@H]2CCCC[C@@H]2N)o1 (relative stereo)")
2

# next compound below
Here OC(Cn1cncn1)(Cn1cncn1)c1ccc(F)cc1F [FLUCONAZOLE] was tested on Cryptococcus neoformans, and its MIC came to 2

###

experimentalDetails: Selectivity ratio of CC50 for cytotoxicity against human Caco-2 cells to MIC for antifungal activity against Cryptococcus neoformans NR 48771
Type: toxicity, cell-based
readout: selectivity ratio
Answers are plain numbers.

>>> quantitativeresult("Cc1nc(-c2ccc3ccccc3c2)sc1-c1nnc(N[C@@H]2CCCC[C@@H]2N)o1 (relative stereo)")
64

The measured selectivity ratio associated with Cc1nc(-c2ccc3ccccc3c2)sc1-c1nnc(N[C@@H]2CCCC[C@H]2N)o1 (relative stereo) reads 64

###

experimentalDetails: Selectivity ratio of CC50 for cytotoxicity against human Caco-2 cells to MIC for antifungal activity against Cryptococcus neoformans NR 48767
Type: toxicity, cell-based
readout: selectivity ratio
Answers are plain numbers.

>>> quantitativeresult("Cc1nc(-c2ccc3ccccc3c2)sc1-c1nnc(N[C@@H]2CCCC[C@@H]2N)o1 (relative stereo)")
64

# next compound below
The measured selectivity ratio associated with Cc1nc(-c2ccc3ccccc3c2)sc1-c1nnc(N[C@@H]2CCCC[C@H]2N)o1 (relative stereo) reads 64

###

Can you tell me MIC for the items I'm about to list?
Tested on: Nakaseomyces glabratus
experimentalDetails: Antifungal activity against Candida glabrata ATCC 66032 assessed as inhibition of fungal growth incubated for 24 hrs by broth microdilution method
Assay type: functional
Give bare numbers, in µg/mL.

Record excerpt, results attached:
>>> quantitativeresult("C[C@@H]1[C@H](O)[C@@H](C)/C=C/C=C/C=C/C=C/C=C/C=C/C=C/[C@H](O[C@@H]2O[C@H](C)[C@@H](O)[C@H](N)[C@@H]2O)C[C@@H]2O[C@](O)(C[C@@H](O)C[C@@H](O)[C@H](O)CC[C@@H](O)C[C@@H](O)CC(=O)O[C@H]1C)C[C@H](O)[C@H]2C(=O)O [AMPHOTERICIN B]")
2
>>> quantitativeresult("OC(Cn1cncn1)(Cn1cncn1)c1ccc(F)cc1F [FLUCONAZOLE]")
8
>>> quantitativeresult("Cc1nc(-c2ccc3ccccc3c2)sc1-c1nnc(N[C@@H]2CCCC[C@H]2N)o1 (relative stereo)")
1

# next molecule below
The measured MIC associated with Cc1nc(-c2ccc3ccccc3c2)sc1-c1nnc(N[C@@H]2CCCC[C@@H]2N)o1 (relative stereo) reads 1

###

experimentalDetails: Selectivity ratio of CC50 for cytotoxicity against African green monkey Vero cells to MIC for antifungal activity against Cryptococcus neoformans NR 41299
Assay type: toxicity, cell-based
Can you tell me selectivity ratio for the items I'm about to list?
Give bare numbers.

>>> quantitativeresult("Cc1nc(-c2ccc3ccccc3c2)sc1-c1nnc(N[C@@H]2CCCC[C@@H]2N)o1 (relative stereo)")
64

The measured selectivity ratio associated with Cc1nc(-c2ccc3ccccc3c2)sc1-c1nnc(N[C@@H]2CCCC[C@H]2N)o1 (relative stereo) reads 64

###

Can you tell me selectivity ratio for the items I'm about to list?
experimentalDetails: Selectivity ratio of CC50 for cytotoxicity against human Caco-2 cells to MIC for antifungal activity against Cryptococcus neoformans NR 48773
Type: toxicity, cell-based
Give bare numbers.

>>> quantitativeresult("Cc1nc(-c2ccc3ccccc3c2)sc1-c1nnc(N[C@@H]2CCCC[C@H]2N)o1 (relative stereo)")
64

The measured selectivity ratio associated with Cc1nc(-c2ccc3ccccc3c2)sc1-c1nnc(N[C@@H]2CCCC[C@@H]2N)o1 (relative stereo) reads 64
